All values here come from PubChem BioAssay AID493169.

test: CHOP2 Reporter Counterscreen Assay for Inhibitors of Ubiquitin-specific Protease USP2a; settings: purified enterokinase, fluorogenic substrate, 485/531 nm; series mostly up to 38.3 µM;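 further: activated enterokinase alone at 50 pM in a cell-free format rather than USP2a or CHOP2; nearly all actives have a fitted effect of over 55% in size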
Results filed as inconclusive are left out. Activity calls are given as the source filed them. The call rests on the fitted dose curve; in most records, active means well fitted inhibition curve with a large enough effect; inconclusive means small, poorly fitted or top-dose-only effect; inactive means flat fitted curve, though single readings scatter.
Write down one outcome, taken from active, inactive

INSERT INTO measurements (compound, qualitative_label) VALUES
  ('Cc1cc(N2CCOCC2)nc(SCC(=O)c2ccc(Cl)cc2)n1', 'inactive');

## Task Call for entry "CCOC(=O)C1CCN(C(=O)COC(=O)c2c(C)c(CC)nc3ccccc23)CC1" :
## Result inactive

## Task Call for entry CCOC(=O)c1ccc(NC(=O)C2=C(C)Nc3nc(CCCO)nn3C2c2cccc(C)c2)cc1 (stereo not drawn) :
## Result inactive

## Task Call for entry CCCNC(=O)CS(=O)Cc1nc(-c2ccccc2C)oc1C (stereo not drawn) :
## Result inactive
